- test-system: Beta-secretase 1 (Homo sapiens, UniProt P56817)
- Sequence (P56817 whole entry): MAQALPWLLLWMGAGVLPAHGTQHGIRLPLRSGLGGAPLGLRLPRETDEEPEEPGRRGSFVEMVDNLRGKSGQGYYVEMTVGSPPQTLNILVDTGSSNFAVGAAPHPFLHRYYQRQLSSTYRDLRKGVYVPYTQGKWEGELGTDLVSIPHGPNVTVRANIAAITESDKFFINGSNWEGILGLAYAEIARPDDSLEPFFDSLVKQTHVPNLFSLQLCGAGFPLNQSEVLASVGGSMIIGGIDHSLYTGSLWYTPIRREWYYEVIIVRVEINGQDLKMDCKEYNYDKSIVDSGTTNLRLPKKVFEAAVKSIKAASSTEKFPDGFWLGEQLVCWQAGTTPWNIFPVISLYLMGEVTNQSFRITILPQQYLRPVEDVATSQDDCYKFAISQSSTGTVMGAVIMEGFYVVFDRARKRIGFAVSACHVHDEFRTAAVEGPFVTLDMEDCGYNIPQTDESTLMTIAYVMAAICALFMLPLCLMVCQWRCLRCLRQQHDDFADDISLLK
- assay-method-text: Inhibition of BACE-1
property-label: pIC50
Numbers only, as −log10 of the molar value.

# compound, pIC50
rows = [
    ("CCCC[C@H]1CCN([C@@H](CCc2ccccc2)C(=O)N[C@@H](Cc2cc(F)cc(F)c2)[C@H](O)[C@H]2Cc3ccccc3CN2)C1=O", 6.00),
    ("CCC(C)[C@@]1(NC(C)=O)CCN([C@@H](CCc2ccccc2)C(=O)N[C@@H](Cc2cc(F)cc(F)c2)[C@H](O)C2Cc3cccc(O)c3CN2)C1=O (stereo partly drawn)", 6.06),
]

// for each compound below, give its pIC50
1. CCCOc1cccc2c1CNC([C@@H](O)[C@H](Cc1cc(F)cc(F)c1)NC(=O)[C@H](CCc1ccccc1)N1CC[C@](NC(C)=O)(C(C)CC)C1=O)C2 (stereo partly drawn)
2. CCC(C)[C@@]1(NC(C)=O)CCN([C@@H](CCc2ccccc2)C(=O)N[C@@H](Cc2cc(F)cc(F)c2)[C@H](O)[C@@H]2Cc3ccccc3CN2)C1=O (stereo partly drawn)
3. CCC(C)[C@@]1(NC(C)=O)CCN([C@@H](CCc2ccccc2)C(=O)N[C@@H](Cc2cc(F)cc(F)c2)[C@H](O)C2Cc3cccc(OC)c3CN2)C1=O (stereo partly drawn)
4. CCC(C)[C@@]1(NC(C)=O)CCN([C@@H](CCc2ccccc2)C(=O)N[C@@H](Cc2cc(F)cc(F)c2)[C@H](O)[C@@H]2Cc3cccc(OC)c3CN2)C1=O (stereo partly drawn)
5. CCCN(CCC)C(=O)c1cccc(C(=O)N[C@@H](Cc2cc(F)cc(F)c2)[C@H](O)[C@H]2Cc3ccccc3CN2)c1 (stereo in doubt; 15b)
6. CCC(C)[C@@]1(NC(C)=O)CCN([C@@H](CCc2ccccc2)C(=O)N[C@@H](Cc2cc(F)cc(F)c2)[C@H](O)C2Cc3ccccc3CN2)C1=O (stereo partly drawn)

Ans:
1. 7.77
2. 6.22
3. 8.40
4. 6.85
5. 5.80
6. 7.27

---

- assay-method-text: Fraction unbound in sc dosed mouse plasma
- Assay type: ADME, organism-based
property-label: fraction unbound

Q: Request the reported fraction unbound associated with CCCS(=O)(=O)[C@H]1CN[C@@H]([C@@H](O)[C@H](Cc2cc(F)cc(F)c2)NC(=O)[C@H](CCc2ccccc2)N2CC[C@](NC(C)=O)(C(C)CC)C2=O)C1 (stereo partly specified)
Ans: 0.24

---

- assay-method-text: Ratio of drug level in brain to plasma in rat at 3 mg/kg, sc
- Type: ADME, organism-based
- Set-up: dose 3 mg/kg, route subcutaneous
- condition-parameters: brain and plasma, read-out: BPR
property-label: Kp

Q: Request the reported Kp associated with CCCS(=O)(=O)[C@H]1CN[C@@H]([C@@H](O)[C@H](Cc2cc(F)cc(F)c2)NC(=O)[C@H](CCc2ccccc2)N2CC[C@](NC(C)=O)(C(C)CC)C2=O)C1 (stereo partly specified)
Ans: 0.32

---

- System: Plasma
- assay-method-text: Drug level in rat plasma at 30 mg/kg, ip
- Assay type: ADME, organism-based
- Design: dose 30 mg/kg, route intraperitoneal
- condition-parameters: in vivo, read-out: Drug uptake
property-label: concentration (µM)
One number for each entry, in µM.

Q: Request the reported concentration associated with CCC(C)[C@@]1(NC(C)=O)CCN([C@@H](CCc2ccccc2)C(=O)N[C@@H](Cc2cc(F)cc(F)c2)[C@H](O)CNCc2cccc(OC)c2)C1=O (stereo partly specified)
Ans: 3.7

---

- Test system: Brain
- assay-method-text: Drug level in rat brain at 100 mg/kg, sc
- Format: ADME, organism-based
- Design: dose 100 mg/kg, route subcutaneous
- condition-parameters: in vivo, read-out: Drug uptake
property-label: concentration (nM)
One number for each entry, in nM.

Q: Request the reported concentration associated with CCCS(=O)(=O)[C@H]1CN[C@@H]([C@@H](O)[C@H](Cc2cc(F)cc(F)c2)NC(=O)[C@H](CCc2ccccc2)N2CC[C@](NC(C)=O)(C(C)CC)C2=O)C1 (stereo partly specified)
Ans: 260

---

- test-system: Beta-secretase 1 (Homo sapiens, UniProt P56817)
- assay-method-text: Inhibition of BACE-1
property-label: IC50 (nM)
Numbers only, in nM.

Reference set, count: 4
# molecule, test-system, observed-result
data = [
    ("CC(=O)N[C@]1(CC(C)C)CCN([C@@H](CCc2ccccc2)C(=O)N[C@@H](Cc2cc(F)cc(F)c2)[C@H](O)C2Cc3ccccc3CN2)C1=O (stereo partly specified)", "Beta-secretase 1 (Homo sapiens, UniProt P56817)", 8),
    ("CCCN(CCC)C(=O)c1cccc(C(=O)N[C@@H](Cc2cc(F)cc(F)c2)[C@H](O)[C@H]2Cc3ccccc3CN2)c1 (stereo in doubt; 15a)", "Beta-secretase 1 (Homo sapiens, UniProt P56817)", 1100),
    ("CC[C@@H](C)[C@H](N)C(=O)N[C@@H](CCc1ccccc1)C(=O)N[C@@H](CC(C)C)[C@@H](O)C[C@@H](C)C(=O)NCCCCc1ccccc1", "Beta-secretase 1 (Homo sapiens, UniProt P56817)", 88),
    ("CCC(C)[C@@]1(N)CCN([C@@H](CCc2ccccc2)C(=O)N[C@@H](CC(C)C)[C@@H](O)C[C@@H](C)C(=O)NCCCCc2ccccc2)C1=O (stereo partly specified)", "Beta-secretase 1 (Homo sapiens, UniProt P56817)", 141),
]

// for each molecule below, give its IC50
1. CCCCN(C)C(=O)n1cc(C(=O)N[C@@H](Cc2cc(F)cc(F)c2)[C@H](O)[C@H]2Cc3ccccc3CN2)c2cccnc21
2. CCCC[C@H]1CCN([C@@H](C)C(=O)N[C@@H](Cc2cc(F)cc(F)c2)[C@H](O)[C@H]2Cc3ccccc3CN2)C1=O

Ans:
1. 1200
2. 1600

---

- Tested on: Plasma
- assay-method-text: Total plasma concentration in rat at 3 mg/kg, sc
- Assay type: ADME, organism-based
- Set-up: dose 3 mg/kg, route subcutaneous
- condition-parameters: in vivo
property-label: concentration
Put down the number, then write its unit next to it.

Q: Request the reported concentration associated with CCCS(=O)(=O)[C@H]1CN[C@@H]([C@@H](O)[C@H](Cc2cc(F)cc(F)c2)NC(=O)[C@H](CCc2ccccc2)N2CC[C@](NC(C)=O)(C(C)CC)C2=O)C1 (stereo partly specified)
Ans: 160 nM

---

- assay-method-text: Fraction unbound in sc dosed rat plasma
- Assay type: ADME, organism-based
property-label: fraction unbound
Answers are plain numbers.

Q: Request the reported fraction unbound associated with CCCS(=O)(=O)[C@H]1CN[C@@H]([C@@H](O)[C@H](Cc2cc(F)cc(F)c2)NC(=O)[C@H](CCc2ccccc2)N2CC[C@](NC(C)=O)(C(C)CC)C2=O)C1 (stereo partly specified)
Ans: 0.3

---

- System: Brain
- assay-method-text: Drug level in rat brain at 3 mg/kg, sc
- Format: ADME, organism-based
- Parameters: dose 3 mg/kg, route subcutaneous
- condition-parameters: in vivo, read-out: Drug uptake
property-label: concentration (nM)
Numbers only, in nM.

Q: Request the reported concentration associated with CCCS(=O)(=O)[C@H]1CN[C@@H]([C@@H](O)[C@H](Cc2cc(F)cc(F)c2)NC(=O)[C@H](CCc2ccccc2)N2CC[C@](NC(C)=O)(C(C)CC)C2=O)C1 (stereo partly specified)
Ans: 46

---

- test-system: Beta-secretase 1 (Homo sapiens, UniProt P56817)
- assay-method-text: Inhibition of BACE-1 in human HEK293 cells overexpressing APP 695 swedish mutation assessed as inhibition of amyloid beta (1 to 40) production by ELISA method
- Assay type: cell-based
Give pIC50 for every item shown.
One number for each entry, as −log10 of the molar value.

# molecule, property-label, observed-result
rows = [
    ("CCC(C)[C@@]1(NC(C)=O)CCN([C@@H](CCc2ccccc2)C(=O)N[C@@H](Cc2ccccc2)[C@H](O)CNCc2cccc(OC)c2)C1=O (some centres not stated)", "pIC50", 7.96),
]

Okay, now this molecule:
Q: Request the reported pIC50 associated with CCC(C)[C@@]1(NC(C)=O)CCN([C@@H](CCc2ccccc2)C(=O)N[C@@H](Cc2cc(F)cc(F)c2)[C@H](O)CNCc2cccc(OC)c2)C1=O (some centres not stated)
Ans: 8.52

---

- Tested on: Brain
- assay-method-text: Drug level in rat brain at 100 mg/kg, ip
- Format: ADME, organism-based
- Parameters: dose 100 mg/kg, route intraperitoneal
- condition-parameters: in vivo, read-out: Drug uptake
property-label: concentration
Put down the number, then write its unit next to it.

Q: Request the reported concentration associated with CCC(C)[C@@]1(NC(C)=O)CCN([C@@H](CCc2ccccc2)C(=O)N[C@@H](Cc2cc(F)cc(F)c2)[C@H](O)CNCc2cccc(OC)c2)C1=O (stereo partly specified)
Ans: 113 nM
